- System: α7 integrin promoter
- Procedure Text: muscle cell-based assay: α7βgal+/− myoblasts/myotubes, LacZ reporter, β-galactosidase cleavage of FDG
- Design: species or system mouse
- Condition: Table 12; log of AC50, given with negative sign; unit of AC50 not given
Observable: Fit Log AC50
# answer = number (no unit)

Some entries whose results are on file:
O=[N+]([O-])c1ccc(Cl)cc1N/N=C/c1ccncc1 = −5.25
CN(C)C1(C/N=C/c2cc(Cl)cc([N+](=O)[O-])c2O)CCCCC1 = −5.05
COc1ccc(-c2csc3ncnc(N4CCN(c5ccccc5[N+](=O)[O-])CC4)c23)cc1 = −5

input: Report Fit Log AC50 for Cc1c(C(=O)O)cccc1-n1c(C)cc(/C=N/Nc2ccc([N+](=O)[O-])cn2)c1C please.
output: −5.55

====

- Tested on: α7 integrin promoter
- Procedure Text: muscle cell-based assay: α7βgal+/− myoblasts/myotubes, LacZ reporter, β-galactosidase cleavage of FDG
- Set-up: species or system mouse
- Condition: Myotubes; compound at 1 uM
Rule: measured Results in a α7+/− β-galactosidase assay, Myotubes, 1 uM below -0.1 gets yes (1); anything equal to or greater than -0.1 gets no (0).

input: Does the reported Results in a α7+/− β-galactosidase assay, Myotubes, 1 uM of the following molecule sit strictly below -0.1? CCOc1ccccc1NC(=O)COC(=O)CNS(=O)(=O)c1ccc(C)cc1 [drawing 440]
output: no (0)

input: Determine if N=C(NOC(=O)c1cccc(C(F)(F)F)c1)c1cnccn1 [drawing 369] shows Results in a α7+/− β-galactosidase assay, Myotubes, 1 uM strictly lower than -0.1.
output: no (0)

input: Just wondering, is Results in a α7+/− β-galactosidase assay, Myotubes, 1 uM of CCCCN1CC(=O)N2Cc3[nH]c4ccccc4c3C[C@H]2C1=O [drawing 478] below -0.1?
output: yes (1)

input: Hello, is Results in a α7+/− β-galactosidase assay, Myotubes, 1 uM of the following molecule strictly smaller than -0.1? CC(=O)Nc1ccc(NC(=O)C/C(C)=N/NC(=O)COc2cc(C)c(Br)cc2Br)cc1 [drawing 449]
output: yes (1)

input: Is Results in a α7+/− β-galactosidase assay, Myotubes, 1 uM of CCN(CC)C(=O)c1sc2nc(-c3ccc(OC)cc3)cn2c1C [drawing 412] strictly below -0.1?
output: no (0)

====

- Test system: α7 integrin promoter
- Procedure Text: muscle cell-based assay: α7βgal+/− myoblasts/myotubes, LacZ reporter, β-galactosidase cleavage of FDG
- Set-up: species or system mouse
- Condition: Myotubes; compound at 5 uM
Please assign FALSE whenever Results in a α7+/− β-galactosidase assay, Myotubes, 5 uM is at or above -0.2, and TRUE whenever it is below.

Solved entries (count: 4):
CN1CCN(c2ccccc2/C=C2\C(=O)Nc3ccccc32)CC1 [drawing 463] = FALSE
CCC(CC)C(=O)Nc1c(C(=O)N2CCN(c3ccccc3)CC2)oc2ccccc12 [drawing 479] = TRUE
O=C(c1ccccc1)N1CCN(S(=O)(=O)c2cccs2)CC1 [drawing 341] = FALSE
CCN(C(=O)c1ccc(S(=O)(=O)N(C)C)cc1)C(C)C(=O)Nc1ccc(C)cc1 (centres unmarked) [drawing 348] = FALSE

Moving on to the next compound.
input: Is Results in a α7+/− β-galactosidase assay, Myotubes, 5 uM strictly under -0.2 for the entry Cc1ccsc1CN(C)CC(=O)Cc1ccc([N+](=O)[O-])cc1Cl [drawing 473] ?
output: TRUE

====

- System: α7 integrin promoter
- Procedure Text: muscle cell-based assay: α7βgal+/− myoblasts/myotubes, LacZ reporter, β-galactosidase cleavage of FDG
- Design: species or system mouse
- Condition: Myotubes; compound at 1 uM
The label is Y for Results in a α7+/− β-galactosidase assay, Myotubes, 1 uM below -0.04 and N for Results in a α7+/− β-galactosidase assay, Myotubes, 1 uM equal to or exceeding -0.04.

Here are 2 compounds together with their reported answers.
N#C/C(=C1/C(=O)Nc2ccc(Br)cc21)c1ccccn1 [drawing 359] = N
CCOC(=O)C1=C(NC(=O)c2ccc(OC)c(S(=O)(=O)N3CCCCC3C)c2)Nc2ccccc2N=C1CC (stereo not shown) [drawing 429] = N

input: Below -0.04 on Results in a α7+/− β-galactosidase assay, Myotubes, 1 uM? Entry C=CCc1c(C)nc(-c2ccccc2)nc1N/N=C(\C)c1ccc(N)cc1 [drawing 454]
output: Y

====

Each entry below carries its reported Results in a α7+/− β-galactosidase assay, Myotubes, 5 uM.
- System: α7 integrin promoter
- Procedure Text: muscle cell-based assay: α7βgal+/− myoblasts/myotubes, LacZ reporter, β-galactosidase cleavage of FDG
- Design: species or system mouse
- Condition: Myotubes; compound at 5 uM
- Method: An α7 integrin null mouse was produced in which exon 1 of the gene encoding the α7 integrin was replaced by the LacZ reporter. […] A primary myoblast cell line (designated α7βgal^+/−) isolated from 10 day old α7^+/− pups were analyzed for the ability of β-galactosidase to report α7 integrin expression. α7βgal^+/− myoblasts were differentiated and subjected to X-gal staining and western analysis (FIGS. 1A and 1B). […]
Answer using only a numeral; do not append any unit.

Answered cases to consult:
O=C1Nc2ccccc2/C1=C/c1c[nH]c(-c2ccccc2)n1 [drawing 340] = 0.09489
O=C(NCCc1ccc(Cl)cc1)C1CCCO1 (stereo not drawn) [drawing 481] = 0.2373
O=C(CNC(=O)c1cccc(F)c1)N/N=C/c1cc(Br)ccc1OCc1ccccc1 [drawing 311] = 0.07121
CC(C)Oc1cccc(C(=O)Nc2ccc(CN3CCOCC3)cc2)c1 [drawing 355] = 0.1741
Cc1nc(O)nc(O)c1S(=O)(=O)Nc1ccc(F)cc1Cl [drawing 337] = 0.06886
COc1ccccc1/C=C1\C(=O)Nc2ccccc21 [drawing 492] = −0.2626
CN1C(=O)N(CC(=O)N2CCN(S(=O)(=O)c3ccc(Cl)s3)CC2)C(=O)C12CCCCC2 [drawing 493] = −0.342
O=C1C2CCCN2C(=O)N1CCCN1CCN(c2cccc(Br)c2)CC1 (stereo not drawn) [drawing 453] = −0.1132
Oc1nc2ccccc2nc1-c1c[nH]c2ccccc12 [drawing 417] = −0.08742
COc1ccccc1CC(=O)Nc1cc(S(=O)(=O)N2CCOCC2)ccc1N1CCOCC1 [drawing 491] = −0.2793

input: Recorded Results in a α7+/− β-galactosidase assay, Myotubes, 5 uM of Cc1nc(/C=C2\C(=O)Nc3ccccc32)c[nH]1 [drawing 480] , please.
output: 0.093

input: Fill in: Results in a α7+/− β-galactosidase assay, Myotubes, 5 uM of CN1C(=O)/C(=C(/C#N)c2nc3ccccc3[nH]2)c2ccccc21 [drawing 384] is ___
output: −0.1571

====

- Test system: α7 integrin promoter
- Procedure Text: muscle cell-based assay: α7βgal+/− myoblasts/myotubes, LacZ reporter, β-galactosidase cleavage of FDG
- Parameters: species or system mouse
- Condition: Myoblasts, 0.5 uM
Use T when the recorded Result in α7+/− β-galactosidase assay is no lower than 0.02; use F when it is lower.

Example cases with answers are listed next.
Cc1[nH]c(/C=C2\C(=O)Nc3ccccc32)c(C)c1CCC(=O)O [drawing 717] = F
Cc1cc(C)c(/C=C2\C(=O)Nc3ccccc32)[nH]1 [drawing 718] = T
CCOc1ccccc1NC(=O)c1cccc2c1C(=O)N(C1CCCCC1)C2 [drawing 707] = T
CCN(CC)CCNC(=O)c1c(C)[nH]c(CC2C(=O)Nc3ccc(F)cc32)c1C (centres unmarked) [drawing 723] = T

input: Result in α7+/− β-galactosidase assay >= 0.02 for COc1ccc(C(=O)Nc2ccc(Cl)cn2)cc1Cl [drawing 706] ?
output: T

====

- Test system: α7 integrin promoter
- Procedure Text: muscle cell-based assay: α7βgal+/− myoblasts/myotubes, LacZ reporter, β-galactosidase cleavage of FDG
- Parameters: species or system mouse; scale not given here
- Condition: Myoblasts, 10 uM
Observable: Results in α7+/− β-galactosidase assay
Please reply with the value in numeric form only.

C=CCOc1ccc(C(=O)/C=C2\C(=O)Nc3ccccc32)cc1 [drawing 561] = −0.2991
Nc1ncnc(NCc2ccccc2)c1[N+](=O)[O-] [drawing 694] = −0.04019
COC(=O)c1ccc(/N=N/c2ccccc2)cc1 [drawing 613] = −0.1217
Cc1ccccc1NC(=O)c1ccc2c(O)c(Sc3ccccc3)c(=O)[nH]c2c1 [drawing 634] = −0.03481
CCc1c(C)sc(NC(=O)c2ccco2)c1C#N [drawing 527] = −0.02233

input: Requested read-out: Results in α7+/− β-galactosidase assay. Entry: N#Cc1nc(COc2ccccc2)oc1N1CCCC1 [drawing 674]
output: −0.1744

input: Tell me the measured Results in α7+/− β-galactosidase assay of N#C/C(=C1/C(=O)Nc2ccc(Br)cc21)c1ccccn1 [drawing 567] , please.
output: −0.4689

input: Recorded Results in α7+/− β-galactosidase assay of Cc1noc(C)c1COc1ccc(C(=O)NCCc2ccccn2)cc1 [drawing 594] , please.
output: 0.1691

input: Would you kindly share the measured Results in α7+/− β-galactosidase assay for Cc1cc(OCC(=O)NC(C)C)ccc1Cl [drawing 680] ?
output: −0.3742
